TEST_SUMMARY: Pharmacokinetics in nude mice after single IP or PO dose
Format: in vivo, athymic nude (Nu/Nu) mice
EXPERIMENTAL_SETUP: female, athymic nude (Nu/Nu), mouse, plasma, po, 40 mg/kg
MEASURE_NAME: MRT inf (h)
Give the value in h but do not write h after it.

Look up MRT inf for this compound: CCn1c2ccccc2c2cc(Nc3ccnc(NCCCN4CCOCC4)n3)ccc21 [EHop-016]
8.76

###

TEST_SUMMARY: Pharmacokinetics in nude mice after single IP or PO dose
Format: in vivo, athymic nude (Nu/Nu) mice
EXPERIMENTAL_SETUP: female, athymic nude (Nu/Nu), mouse, plasma, ip, 40 mg/kg
MEASURE_NAME: MRT inf
Write down the value, and be sure its unit follows.

Look up MRT inf for this compound: CCn1c2ccccc2c2cc(Nc3ccnc(NCCCN4CCOCC4)n3)ccc21
4.21 h

###

TEST_SUMMARY: Pharmacokinetics in nude mice after single IP or PO dose
Assay type: in vivo, athymic nude (Nu/Nu) mice
EXPERIMENTAL_SETUP: female, athymic nude (Nu/Nu), mouse, plasma, ip, 20 mg/kg
MEASURE_NAME: MRT inf
Write down the value, and be sure its unit follows.

Look up MRT inf for this molecule: CCn1c2ccccc2c2cc(Nc3ccnc(NCCCN4CCOCC4)n3)ccc21 [EHop-016]
4.73 h

###

TEST_SUMMARY: Pharmacokinetics in nude mice after single IP or PO dose
Type: in vivo, athymic nude (Nu/Nu) mice
EXPERIMENTAL_SETUP: female, athymic nude (Nu/Nu), mouse, plasma, po
MEASURE_NAME: Cmax

Look up Cmax for this compound: CCn1c2ccccc2c2cc(Nc3ccnc(NCCCN4CCOCC4)n3)ccc21
26 to 90 ng/mL

###

TEST_SUMMARY: Pharmacokinetics in nude mice after single IP or PO dose
Format: in vivo, athymic nude (Nu/Nu) mice
EXPERIMENTAL_SETUP: female, athymic nude (Nu/Nu), mouse, plasma, po, 40 mg/kg, t1/2, PO
MEASURE_NAME: half-life (h)
Give the value in h but do not write h after it.

Look up half-life for this compound: CCn1c2ccccc2c2cc(Nc3ccnc(NCCCN4CCOCC4)n3)ccc21
5.87

###

TEST_SUMMARY: Pharmacokinetics in nude mice after single IP or PO dose
Type: in vivo, athymic nude (Nu/Nu) mice
EXPERIMENTAL_SETUP: female, athymic nude (Nu/Nu), mouse, plasma, ip, 40 mg/kg
MEASURE_NAME: AUC(0-inf)

Look up AUC(0-inf) for this compound: CCn1c2ccccc2c2cc(Nc3ccnc(NCCCN4CCOCC4)n3)ccc21 [EHop-016]
328 to 1870 ng·h/mL

###

TEST_SUMMARY: Pharmacokinetics in nude mice after single IP or PO dose
Format: in vivo, athymic nude (Nu/Nu) mice
EXPERIMENTAL_SETUP: female, athymic nude (Nu/Nu), mouse, plasma, po, 20 mg/kg
MEASURE_NAME: Cmax (ng/mL)
Give the value in ng/mL but do not write ng/mL after it.

Look up Cmax for this compound: CCn1c2ccccc2c2cc(Nc3ccnc(NCCCN4CCOCC4)n3)ccc21 [EHop-016]
35.1

###

TEST_SUMMARY: Pharmacokinetics in nude mice after single IP or PO dose
Format: in vivo, athymic nude (Nu/Nu) mice
EXPERIMENTAL_SETUP: female, athymic nude (Nu/Nu), mouse, plasma, po, 40 mg/kg
MEASURE_NAME: Cmax (ng/mL)
Give the value in ng/mL but do not write ng/mL after it.

Look up Cmax for this molecule: CCn1c2ccccc2c2cc(Nc3ccnc(NCCCN4CCOCC4)n3)ccc21
89.7
